# Test system: NCI-H1993
# protocol: relative viability (nuclei count vs DMSO), 5 days (fraction); higher = more cells survive
# conditionDescription: first compound 0.253 µM
Note to self: relative viability under 0.6 means Condition met, ties and anything higher get Condition not met.

Observe how each entry below is paired with its result.
compound	studyTarget	classification
COc1nc(C)cnc1NS(=O)(=O)c1cccnc1-c1ccc(-c2nnco2)cc1 [Zibotentan] + Nc1nc2[nH]cc(CCc3ccc(C(=O)N[C@@H](CCC(=O)O)C(=O)O)cc3)c2c(=O)[nH]1 [Pemetrexed] (partner 0.2 µM)	NCI-H1993	Condition met
COc1nc(C)cnc1NS(=O)(=O)c1cccnc1-c1ccc(-c2nnco2)cc1 [Zibotentan] + CS(=O)(=O)CCNCc1ccc(-c2ccc3ncnc(Nc4ccc(OCc5cccc(F)c5)c(Cl)c4)c3c2)o1 [Lapatinib] (partner 2 µM)	NCI-H1993	Condition not met
O=c1cc(-c2cccc3c2Sc2ccccc2S3)oc(N2CCOCC2)c1 + Cc1nc(Nc2ncc(C(=O)Nc3c(C)cccc3Cl)s2)cc(N2CCN(CCO)CC2)n1 [Dasatinib] (partner 0.075 µM)	NCI-H1993	Condition met

Enquiry: For COc1nc(C)cnc1NS(=O)(=O)c1cccnc1-c1ccc(-c2nnco2)cc1 [Zibotentan] + C[C@@H](Oc1cc(-c2cnn(C3CCNCC3)c2)cnc1N)c1c(Cl)ccc(F)c1Cl [Crizotinib] (partner 1 µM) , is the recorded relative viability below the cut-off of 0.6?
Return: Condition not met

====

Recorded relative viability values for a group of molecules are listed next.
# System: SW 900
# protocol: relative viability (nuclei count vs DMSO), 5 days (fraction); higher = more cells survive
# conditionDescription: first compound 2.53 µM

Illustrative cases are given below, each with its answer.
molecule	relative viability
O=c1cc(-c2cccc3c2Sc2ccccc2S3)oc(N2CCOCC2)c1 + CC(=O)c1c(C)c2cnc(Nc3ccc(N4CCNCC4)cn3)nc2n(C2CCCC2)c1=O [Palbociclib] (partner 0.5 µM)	0.492
COc1nc(C)cnc1NS(=O)(=O)c1cccnc1-c1ccc(-c2nnco2)cc1 [Zibotentan] + Nc1nc2[nH]cc(CCc3ccc(C(=O)N[C@@H](CCC(=O)O)C(=O)O)cc3)c2c(=O)[nH]1 [Pemetrexed] (partner 0.2 µM)	0.472

Now consider the entry below.
Enquiry: If you can, please state the reported relative viability value of COc1nc(C)cnc1NS(=O)(=O)c1cccnc1-c1ccc(-c2nnco2)cc1 [Zibotentan] + Cc1nc(Nc2ncc(C(=O)Nc3c(C)cccc3Cl)s2)cc(N2CCN(CCO)CC2)n1 [Dasatinib] (partner 0.075 µM) .
Return: 0.911

====

# Test system: NCI-H3122
# protocol: relative viability (nuclei count vs DMSO), 5 days (fraction); higher = more cells survive
# conditionDescription: first compound 2.53 µM
// returns 0 (no) unless relative viability is strictly below 0.8, in which case 1 (yes)

Sample answers from the record:
compound	classification
COc1nc(C)cnc1NS(=O)(=O)c1cccnc1-c1ccc(-c2nnco2)cc1 [Zibotentan] + Cc1nc(Nc2ncc(C(=O)Nc3c(C)cccc3Cl)s2)cc(N2CCN(CCO)CC2)n1 [Dasatinib] (partner 0.075 µM)	1 (yes)
COc1nc(C)cnc1NS(=O)(=O)c1cccnc1-c1ccc(-c2nnco2)cc1 [Zibotentan] + Nc1nc2[nH]cc(CCc3ccc(C(=O)N[C@@H](CCC(=O)O)C(=O)O)cc3)c2c(=O)[nH]1 [Pemetrexed] (partner 0.2 µM)	1 (yes)
O=c1cc(-c2cccc3c2Sc2ccccc2S3)oc(N2CCOCC2)c1 + C[C@]1(O)C[C@@H](c2nc(-c3ccc4ccc(-c5ccccc5)nc4c3)c3c(N)nccn32)C1 [Linsitinib] (partner 1 µM)	0 (no)
O=c1cc(-c2cccc3c2Sc2ccccc2S3)oc(N2CCOCC2)c1 + COc1cccc2cc(-c3nc([C@H]4CC[C@H](C(=O)O)CC4)n4ncnc(N)c34)[nH]c12 [OSI-027] (partner 0.5 µM)	0 (no)
COc1nc(C)cnc1NS(=O)(=O)c1cccnc1-c1ccc(-c2nnco2)cc1 [Zibotentan] + C[C@]1(O)C[C@@H](c2nc(-c3ccc4ccc(-c5ccccc5)nc4c3)c3c(N)nccn32)C1 [Linsitinib] (partner 1 µM)	0 (no)
COc1nc(C)cnc1NS(=O)(=O)c1cccnc1-c1ccc(-c2nnco2)cc1 [Zibotentan] + C[C@@H](Oc1cc(-c2cnn(C3CCNCC3)c2)cnc1N)c1c(Cl)ccc(F)c1Cl [Crizotinib] (partner 1 µM)	1 (yes)

Enquiry: Regarding COc1nc(C)cnc1NS(=O)(=O)c1cccnc1-c1ccc(-c2nnco2)cc1 [Zibotentan] + CC(=O)Nc1cccc(-n2c(=O)n(C3CC3)c(=O)c3c(Nc4ccc(I)cc4F)n(C)c(=O)c(C)c32)c1 [Trametinib] (partner 0.02 µM) , kindly confirm whether its relative viability is beneath 0.8.
Return: 1 (yes)

Enquiry: relative viability strictly < 0.8 for this compound? O=c1cc(-c2cccc3c2Sc2ccccc2S3)oc(N2CCOCC2)c1 + COc1cc2c(Oc3ccc(NC(=O)C4(C(=O)Nc5ccc(F)cc5)CC4)cc3F)ccnc2cc1OCCCN1CCOCC1 [Foretinib] (partner 0.25 µM)
Return: 0 (no)

Enquiry: Confirm or reject: relative viability of COc1nc(C)cnc1NS(=O)(=O)c1cccnc1-c1ccc(-c2nnco2)cc1 [Zibotentan] + CC(C)C[C@H](NC(=O)[C@H](Cc1ccccc1)NC(=O)c1cnccn1)B(O)O [Bortezomib] (partner 0.002 µM) lies strictly below 0.8
Return: 0 (no)
